Tested on: NF-κB
Procedure Summary: High throughput assay for NF-κB reporter activity (luciferase) in stably transfected SH-SY5Y cells
Assay type: cell-based, human
Test Parameters: Homo sapiens, 24 h, read-out: Emax
Consider the following compounds and their measured maximal fold induction readings.

Smiles Notation: COC(=O)c1cccc(-c2cnc(Nc3ccc(OC)cc3)o2)c1
Study System: NF-κB
maximal fold induction: 2.47
//
Smiles Notation: COC(=O)c1ccccc1-c1cnc(Nc2c(F)cccc2F)o1
Study System: NF-κB
maximal fold induction: 4.36
//
Smiles Notation: CCCN(c1ccc(F)cc1)c1ncc(-c2cccc(C(=O)OC)c2)o1
Study System: NF-κB
maximal fold induction: 3
//
Smiles Notation: COC(=O)c1cccc(-c2cnc(Nc3c(F)cc(F)cc3F)o2)c1
Study System: NF-κB
maximal fold induction: 12.3
//
Smiles Notation: O=C(O)c1cccc(-c2cnc(Nc3ccc(Cl)cc3)o2)c1
Study System: NF-κB
maximal fold induction: 11.3
//
Smiles Notation: COC(=O)c1ccccc1-c1cnc(Nc2cccc(F)c2)o1
Study System: NF-κB
maximal fold induction: 2.37
//
Smiles Notation: O=C(O)c1ccccc1-c1cnc(Nc2cc(F)ccc2F)o1
Study System: NF-κB
maximal fold induction: 4.46
//
Smiles Notation: COC(=O)c1ccccc1-c1cnc(Nc2cc(F)ccc2F)o1
Study System: NF-κB
maximal fold induction: 2.29
//
Smiles Notation: Fc1ccccc1Nc1nc(-c2ccccn2)no1
Study System: NF-κB
maximal fold induction: 14.4
//
Smiles Notation: NCc1cccc(-c2cnc(Nc3ccccc3F)o2)c1
Study System: NF-κB
maximal fold induction: 5.14

----------
Tested on: NF-κB
Procedure Summary: High throughput assay for NF-κB reporter activity (luciferase) in stably transfected SH-SY5Y cells
Assay type: cell-based, human
Test Parameters: Homo sapiens, 24 h, read-out: Emax
Property Label: maximal fold induction

Smiles Notation: O=C(/C=C\Nc1ccccc1Br)c1ccc2c(c1)OCO2
Quantitative Readout: 26
--
Smiles Notation: COC(=O)c1ccc(-c2cnc(Nc3ccc(F)cc3F)o2)cc1
Quantitative Readout: 4.41
--
Smiles Notation: O=C(O)c1ccc(-c2cnc(Nc3ccc(F)cc3)o2)cc1
Quantitative Readout: 4.22
--
Smiles Notation: COC(=O)c1ccccc1-c1cnc(Nc2ccccc2F)o1
Quantitative Readout: 2.37
--
Smiles Notation: Cc1noc(-c2cccc(-c3cnc(N(C)c4ccc(F)cc4)o3)c2)n1
Quantitative Readout: 3.2
--
Smiles Notation: COC(=O)c1ccc(-c2cnc(Nc3cccc(F)c3F)o2)cc1
Quantitative Readout: 7.24
